Listed here: items and their measured normalised response.
tested on: MFM-223; test: normalised response (% of control), CellTiter-Glo; higher = more viable cells (100 = DMSO, 0 = benzethonium chloride kill control); conditions: incubation time: 72 h
Express it in %; write the number only.

Cn1c(CCCC(=O)O)nc2cc(N(CCCl)CCCl)ccc21 [Bendamustine] (100 nM) | 106

Exam item: Please give measured normalised response of the following entry: COc1cc2nccc(Oc3ccc(NC(=O)C4(C(=O)Nc5ccc(F)cc5)CC4)cc3)c2cc1OC [Cabozantinib] (10 nM)
Marked response: 99.4

Exam item: Retrieve normalised response measured for CCC1=C[C@@H]2CN(C1)Cc1c([nH]c3ccccc13)[C@@](C(=O)OC)(c1cc3c(cc1OC)N(C)[C@H]1[C@@](O)(C(=O)OC)[C@H](OC(C)=O)[C@]4(CC)C=CCN5CC[C@]31[C@@H]54)C2 [Vinorelbine] (100 nM) and print it.
Marked response: 59.8

* * *

system: HCC1599; test: drug sensitivity score (DSS), CellTiter-Glo (DSS (AUC-based score)); higher = stronger drug effect (viability inhibition or cytotoxicity); extreme values may be limits of the assay; settings: incubation time: 72 h
METRIC_NAME: drug sensitivity score

CC(C)Cn1cnc2c(N)nc3ccccc3c21 | 0

Exam item: Hello, please tell me recorded drug sensitivity score for this one: Cc1ccc(-n2nc(C(C)(C)C)cc2NC(=O)Nc2ccc(OCCN3CCOCC3)c3ccccc23)cc1
Marked response: 0

Exam item: Supply reported drug sensitivity score belonging to this molecule: O=P1(NCCCl)OCCCN1CCCl (configuration not stated) [Ifosfamide]
Marked response: 0

Exam item: Fill in drug sensitivity score for record Cn1c(CCCC(=O)O)nc2cc(N(CCCl)CCCl)ccc21
Marked response: 0

Exam item: Consider the molecule O=C1CCC(N2C(=O)c3ccccc3C2=O)C(=O)N1 (configuration not stated) [Thalidomide] . State its measured drug sensitivity score.
Marked response: 0

Exam item: Query drug sensitivity score for COc1cc2nccc(Oc3ccc(NC(=O)C4(C(=O)Nc5ccc(F)cc5)CC4)cc3)c2cc1OC [Cabozantinib]
Marked response: 0

Exam item: Supply reported drug sensitivity score belonging to this molecule: O=C(CCCCCCC(=O)Nc1ccc([C@H]2O[C@@H](CSc3nc(-c4ccccc4)c(-c4ccccc4)o3)C[C@@H](c3ccc(CO)cc3)O2)cc1)NO
Marked response: 4.67

* * *

# maps each entry to its normalised response
test system: HCC1937; assay: normalised response (% of control), CellTiter-Glo; higher = more viable cells (100 = DMSO, 0 = benzethonium chloride kill control); conditions: incubation time: 72 h
Please don't drop the unit; write it after the number.

Cc1ccc(-n2nc(C(C)(C)C)cc2NC(=O)Nc2ccc(OCCN3CCOCC3)c3ccccc23)cc1 [Doramapimod] (10000 nM) | 77.7%
N.N.[Cl][Pt][Cl] [Cisplatin] (1000 nM) | 106%
COc1cc([C@@H]2c3cc4c(cc3[C@@H](O[C@@H]3O[C@@H]5CO[C@@H](C)O[C@H]5[C@H](O)[C@H]3O)[C@H]3COC(=O)[C@H]23)OCO4)cc(OC)c1O [Etoposide] (10000 nM) | 67.5%
Cc1ccc(C(=O)N(CCCN)[C@@H](c2oc3cc(Cl)ccc3c(=O)c2Cc2ccccc2)C(C)C)cc1 (100 nM) | 95.5%
C#Cc1cccc(Nc2ncnc3cc(OCCOC)c(OCCOC)cc23)c1 [Erlotinib] (10000 nM) | 76.4%

Exam item: Report value: normalised response, system: HCC1937, molecule: CO[C@H]1/C=C\C=C(/C)C(=O)NC2=CC(=O)C(NCCN(C)C)=C(C[C@@H](C)C[C@H](OC)[C@H](O)[C@@H](C)/C=C(\C)[C@@H]1OC(N)=O)C2=O [Alvespimycin] (1000 nM)
Marked response: 21.6%

Exam item: Supply normalised response measured with HCC1937 for Oc1nc(-c2ccc(C(F)(F)F)cc2)nc2c1CSCC2 [XAV-939] (10000 nM) .
Marked response: 89.7%

* * *

test system: CAL-148; assay: normalised viability (% of control), CellTiter-Blue; higher = more viable cells (about 100 = DMSO control); conditions: 100 nM; incubation time: 72 h
normalised viability reference
Number first, unit second: that is the form wanted.

Exam item: Answer with the recorded normalised viability for the compound listed here: COc1cc([C@@H]2c3cc4c(cc3[C@@H](O[C@@H]3O[C@@H]5CO[C@@H](C)O[C@H]5[C@H](O)[C@H]3O)[C@H]3COC(=O)[C@H]23)OCO4)cc(OC)c1O [Etoposide]
Marked response: 85.7%

Exam item: Report normalised viability, nothing else, for this compound: O=C1CCC(N2C(=O)c3ccccc3C2=O)C(=O)N1 (stereo not given) [Thalidomide]
Marked response: 116%

Exam item: # return recorded normalised viability for input CC1(C)NC(=O)N(c2ccc([N+](=O)[O-])c(C(F)(F)F)c2)C1=O [Nilutamide]
Marked response: 97%

Exam item: For the compound CCC1=C[C@@H]2CN(C1)Cc1c([nH]c3ccccc13)[C@@](C(=O)OC)(c1cc3c(cc1OC)N(C)[C@H]1[C@@](O)(C(=O)OC)[C@H](OC(C)=O)[C@]4(CC)C=CCN5CC[C@]31[C@@H]54)C2 , give its measured normalised viability value.
Marked response: 18.7%

Exam item: Give normalised viability for CC(C)Cn1cnc2c(N)nc3ccccc3c21
Marked response: 98.5%

* * *

tested on: BT-474; experiment: normalised response (% of control), CellTiter-Glo; higher = more viable cells (100 = DMSO, 0 = benzethonium chloride kill control); settings: incubation time: 72 h
Give met when the value for normalised response is at least 80%. Give not met when it is less.

Use these answered entries as a reference point.
CCC(C)(C)C(=O)O[C@H]1C[C@@H](C)C=C2C=C[C@H](C)[C@H](CC[C@@H]3C[C@@H](O)CC(=O)O3)[C@H]21 [Simvastatin] (10000 nM) | not met
O=C(O)c1ccc(-c2c[nH]c3ncc(-c4ccccc4)cc23)cc1C1CCCC1 (10000 nM) | met
Cc1ccc(C(=O)N(CCCN)[C@@H](c2oc3cc(Cl)ccc3c(=O)c2Cc2ccccc2)C(C)C)cc1 (100 nM) | met
CCCCCCCCCCCCCCCCCCOP(=O)([O-])OC1CC[N+](C)(C)CC1 [Perifosine] (2500 nM) | met
COc1cc2nccc(Oc3ccc(NC(=O)C4(C(=O)Nc5ccc(F)cc5)CC4)cc3)c2cc1OC [Cabozantinib] (1000 nM) | met
O=P1(NCCCl)OCCCN1CCCl (stereo unspecified) [Ifosfamide] (10000 nM) | met
CCC1(c2ccc(N)cc2)CCC(=O)NC1=O (stereo unspecified) [Aminoglutethimide] (10000 nM) | met
CS(=O)(=O)c1ccc(C2=C(c3ccccc3)C(=O)OC2)cc1 [Rofecoxib] (10000 nM) | met
CCC1=C[C@@H]2CN(C1)Cc1c([nH]c3ccccc13)[C@@](C(=O)OC)(c1cc3c(cc1OC)N(C)[C@H]1[C@@](O)(C(=O)OC)[C@H](OC(C)=O)[C@]4(CC)C=CCN5CC[C@]31[C@@H]54)C2 [Vinorelbine] (10000 nM) | not met

# evaluate next
Exam item: Could you please find out whether COc1cc([C@@H]2c3cc4c(cc3[C@@H](O[C@@H]3O[C@@H]5CO[C@@H](C)O[C@H]5[C@H](O)[C@H]3O)[C@H]3COC(=O)[C@H]23)OCO4)cc(OC)c1O [Etoposide] (10000 nM) has normalised response that meets 80% or exceeds it?
Marked response: not met

* * *

system: MDA-MB-468; experiment: drug sensitivity score (DSS), CellTox Green (DSS (AUC-based score)); higher = stronger drug effect (viability inhibition or cytotoxicity); extreme values may be limits of the assay; conditions: incubation time: 72 h
drug sensitivity score values by entry
Give only the figure.

Answered cases to consult:
N#CCNC(=O)c1ccc(-c2ccnc(Nc3ccc(N4CCOCC4)cc3)n2)cc1 | 2.22
O=C1CCC(N2C(=O)c3ccccc3C2=O)C(=O)N1 (stereo not drawn) [Thalidomide] | 0

Exam item: Supply measured drug sensitivity score of COc1cc([C@@H]2c3cc4c(cc3[C@@H](O[C@@H]3O[C@@H]5CO[C@@H](C)O[C@H]5[C@H](O)[C@H]3O)[C@H]3COC(=O)[C@H]23)OCO4)cc(OC)c1O [Etoposide] in your reply.
Marked response: 7.2

Exam item: // Input: CN(C)/N=N/c1[nH]cnc1C(N)=O . Output its drug sensitivity score only.
Marked response: 0

Exam item: Tell us which drug sensitivity score value is on record for CC1(C)NC(=O)N(c2ccc([N+](=O)[O-])c(C(F)(F)F)c2)C1=O [Nilutamide]
Marked response: 0

Exam item: Fill in drug sensitivity score for record COc1cc2ncnc(Nc3ccc(F)c(Cl)c3)c2cc1NC(=O)/C=C/CN1CCCCC1
Marked response: 0

Exam item: Respond only with drug sensitivity score recorded for C[C@@H](Oc1cc(-c2cnn(C3CCNCC3)c2)cnc1N)c1c(Cl)ccc(F)c1Cl
Marked response: 0

Exam item: Supply recorded drug sensitivity score for Clc1ccc(Nc2nnc(Cc3ccncc3)c3ccccc23)cc1 here.
Marked response: 0
